Target: N700 alaRS (Escherichia coli, UniProt P00957)
Sequence (P00957 2-701): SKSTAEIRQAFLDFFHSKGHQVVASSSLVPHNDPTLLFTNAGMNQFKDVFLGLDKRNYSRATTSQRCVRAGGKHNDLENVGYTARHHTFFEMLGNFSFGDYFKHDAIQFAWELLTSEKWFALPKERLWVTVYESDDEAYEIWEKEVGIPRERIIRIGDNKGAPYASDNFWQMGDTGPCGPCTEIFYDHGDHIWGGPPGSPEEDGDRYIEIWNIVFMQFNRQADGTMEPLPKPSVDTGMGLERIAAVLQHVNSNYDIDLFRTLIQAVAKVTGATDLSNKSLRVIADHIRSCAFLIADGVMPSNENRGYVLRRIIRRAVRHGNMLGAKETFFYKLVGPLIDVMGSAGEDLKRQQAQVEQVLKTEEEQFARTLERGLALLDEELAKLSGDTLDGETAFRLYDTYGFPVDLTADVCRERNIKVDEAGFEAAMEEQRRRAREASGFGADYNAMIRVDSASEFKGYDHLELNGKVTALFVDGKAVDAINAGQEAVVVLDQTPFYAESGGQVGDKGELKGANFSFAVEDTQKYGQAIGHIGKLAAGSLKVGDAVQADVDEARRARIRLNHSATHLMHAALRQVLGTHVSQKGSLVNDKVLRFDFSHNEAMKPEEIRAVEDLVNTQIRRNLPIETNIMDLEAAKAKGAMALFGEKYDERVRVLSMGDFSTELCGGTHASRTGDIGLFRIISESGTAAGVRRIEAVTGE
pKd: −log10 of the molar value.
OBSERVED PROPERTY: pKd

| COMPOUND | OBSERVED PROPERTY | RESULT |
| --- | --- | --- |
| O=S(=O)(O)c1cccc2cccc(Nc3ccccc3)c12 [ANS] | pKd | 5.30 to 6.00 |
